Biological target: recombinant homotrimeric HA A/chicken/Vietnam/NCVD-016/08 H5N1 (Influenza A virus A/chicken/Vietnam/NCVD-016/2008(H5N1))
Test: protein microarray, purified IgG, trimeric HA
Details: remark: other sources report otherwise
experimental.readout: Trimeric HA Binding: RLU (RLU)

1. TCN-531 (5091_H13) (antibody, V domains shown) VH: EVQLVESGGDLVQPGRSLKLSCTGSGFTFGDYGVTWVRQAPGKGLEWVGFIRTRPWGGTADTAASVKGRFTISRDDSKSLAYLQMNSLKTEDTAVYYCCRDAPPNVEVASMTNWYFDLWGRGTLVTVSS VL: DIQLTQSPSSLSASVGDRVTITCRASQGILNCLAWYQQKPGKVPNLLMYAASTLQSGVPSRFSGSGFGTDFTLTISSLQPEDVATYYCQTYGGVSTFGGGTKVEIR :: 124
